- target_desc: T1, hK1 (human tissue kallikrein 1), recombinant (human, UniProt P06870 25-262)
- T1 construct: Expressed in P. pastoris from KLK1 cDNA and purified; enzymatically active; also called KLK1; Recombinant (Pichia) Kallikrein
- test_method_notes: SPR
metric_name: kon (M⁻¹ s⁻¹)
Note: unit M⁻¹ s⁻¹ is implicit; provide only the numeric part.

Asked: For M0110-H11 (Fab, V domains shown) VH: EVQLLESGGGLVQPGGSLRLSCAASGFTFSHYKMEWVRQAPGKGLEWVSRIRPSGGVTKYADSVKGRFTISRDNSKNTLYLQMNSLRAEDTAVYYCTRGGLWDAFDIWGQGTMVTVSS VL: DIQMTQSPSSLSASVGDRVTITCRASQSISSYLNWYQQKPGKAPKLLIYAASSLQSGVPSRFSGSGSGTDFTLTISSLHPEDFATYYCQQTYSTLFTFGPGTKVHIKR , what is its reported kon?
Given back: 975000

Asked: For M0108-D11 (Fab, V domains shown) VH: EVQLLESGGGLVQPGGSLRLSCAASGFTFSWYVMTWVRQAPGKGLEWVSVIYPSGGATKYADSVKGRFTISRDNSKNTLYLQMNSLRAEDTAVYYCARRGAGGMDVWGQGTTVTVSS VL: AQSVLTQPASVSGSPGQSITISCTGTNTDVGGYNLVSWYQQHPGKAPKLIIYEVSNRPSGVSNRFSGSKSGNTASLTISGLQAEDEVDYYCGSYTSSSTHVFGSGTKVTVLG , what is its reported kon?
Given back: 330000

Asked: For M0102-A04 (Fab, V domains shown) VH: EVQLLESGGGLVQPGGSLRLSCAASGFTFSHYVMNWVRQAPGKGLEWVSRIYPSGGVTVYADSVKGRFTISRDNSKNTLYLQMNSLRAEDTAVYYCARGYGMDVWGQGTMVTVSS VL: AQSELTQPPSASGTPGQRVTISCSGSSSNIGSNYVYWYQQYPGTVPKLLIHSNNQRPSGVPDRFSGPKSGTSASLAISGLRSEDEADYYCATWDNSLSAWVFGGGTKLTVLR , what is its reported kon?
Given back: 327000
